Measured T/C values are reported for all entries that follow.
- System: P388 leukemia ip, CD2F1 mice, survival T/C
- EXPERIMENT: NCI In Vivo Anticancer Drug Screen. Data for tumor model P388 Leukemia (intraperitoneal) in CD2F1 (CDF1) mice
- STUDY CONDITIONS: endpoint: median survival time; dose: 200.0 mg/kg/injection; schedule: Q04DX003 (ip); vehicle: Klucel (hydroxypropylcellulose) (HPC); higher = longer survival
- Protocol: The antitumor activity of compounds was measured in mice bearing transplantable tumors. Survival or tumor size were measured and the results are expressed as the measurement made in the treated group (T) divided by the measurement made in the vehicle treated control group (C). The tumor model used in this assay is P388 Leukemia (intraperitoneal) in CD2F1 (CDF1) mice
Toxic doses and inconclusive results are not listed.

| MOLECULE | T/C |
| --- | --- |
| O=c1[nH]c(=S)[nH]c2nccnc12 | 118 % of control |
| CN1CCCC(O)(C(=O)c2ccccc2)C1 (stereo not drawn) | 104 % of control |
| Cc1nn(C(=O)c2ccncc2)c(C)c1N=Nc1ccccc1Cl | 95 % of control |
| CCOP(O)(=S)OCC | 89 % of control |
| CCOc1ccc2c(c1)C(C)=CC(C)(C)N2 | 102 % of control |
| C=C(C)c1cc(C(C)(C)C)cc(C(C)(C)O)c1S(C)(=O)=O | 98 % of control |
| N#CCN=C(N)NN | 94 % of control |
| c1ccc(P23(Oc4ccccc4S2)Oc2ccccc2S3)cc1 | 90 % of control |
| COC(=O)C1c2ccccc2C(C(=O)OC)C(C(=O)OC)C(C(=O)OC)c2ccccc21 (stereo not drawn) | 102 % of control |
| CC(=C\C=N\N(C)c1ccccc1)/C=C1\Cc2ccccc2C1=O | 97 % of control |
| C=C1CC2C(C1=O)C(c1ccc(OC)cc1)C13OC1CCC23 (stereo not drawn) | 96 % of control |
| COC(=O)CCCOc1ccc(N(CCCl)CCCl)cc1 | 223 % of control |
| Cc1c2ccccc2c(C)c2c1cc(F)c1ccccc12 | 113 % of control |
